Taken from patent US20240301067A1.

Reported values of Kd for individual entries
# target_under_test: T1, Human PD-1 extracellular domain, hFc tag (human, UniProt Q15116 25-170)
# T1 construct: extracellular domain; also called hPro1.ECD.hFc; not shown: human Fc tag at C-terminus
# assay_info: SPR Biacore 8K; PD-1-hFc captured on anti-human Fc chip, VHH injected; 1:1 fit
Response body: numeric value in nM, unit text excluded.

Which Kd is listed for AP17R1-2H2-Z1-R1-14B3 (VHH, not shown: his- and c-Myc-tag from vector pETbac) VHH: QVQLVESGGGVVQPGGSLRLSCAASDSIDSLVNMGWYRQAPGKQRELVALIARYITHYADFVKGRFTISRDNSKNTLYLQMNSLRAEDTAVYYCYARNIIVDYWGQGTLVTVSS ?
5.09
